// data source = ChEMBL document CHEMBL2057081

- Tested on: MCF7
- ASSAY PROCEDURE: Cytotoxicity against human MCF7 cells by MTT assay
- Type: functional, cell-based
PROPERTY: IC50 (µM)
Write the value in µM as a bare number.

Recorded result, C/C=C(/C)C(=O)O[C@@H]1[C@@H](O)[C@H](O[C@H]2[C@H](OC(C)=O)[C@]3(CO)[C@H](O)C[C@]4(C)C(=CC[C@@H]5[C@@]6(C)CC[C@H](O[C@@H]7O[C@H](C(=O)O)[C@@H](O)[C@H](O)[C@H]7O[C@@H]7O[C@H](CO)[C@@H](O)[C@H](O)[C@H]7O)C(C)(C)[C@@H]6CC[C@]54C)[C@@H]3CC2(C)C)O[C@H](C)[C@@H]1OC(=O)/C(C)=C\C , IC50: 4.3

* * *

- Tested on: MCF7
- ASSAY PROCEDURE: Cytotoxicity against human MCF7 cells by MTT assay
- Type: functional, cell-based
This listing pairs compounds with measured pIC50.
When answering, recall that pIC50 equals minus log10 of the concentration in mol/L, and write that number alone.

INSERT INTO measurements (smiles, property, value) VALUES
  ('C/C=C(/C)C(=O)O[C@@H]1[C@@H](O)[C@H](O[C@H]2[C@H](O)[C@]3(COC(C)=O)[C@H](O)C[C@]4(C)C(=CC[C@@H]5[C@@]6(C)CC[C@H](O[C@@H]7O[C@H](C(=O)O)[C@@H](O)[C@H](O)[C@H]7O[C@@H]7O[C@H](CO)[C@@H](O)[C@H](O)[C@H]7O)[C@](C)(CO)[C@@H]6CC[C@]54C)[C@@H]3CC2(C)C)O[C@H](C)[C@@H]1OC(=O)/C(C)=C\C', 'pIC50', 4.31),
  ('C/C=C(/C)C(=O)O[C@@H]1[C@@H](O)[C@H](O[C@H]2[C@H](OC(C)=O)[C@]3(CO)[C@H](O)C[C@]4(C)C(=CC[C@@H]5[C@@]6(C)CC[C@H](O[C@@H]7O[C@H](C(=O)O)[C@@H](O)[C@H](O)[C@H]7O[C@@H]7O[C@H](CO)[C@@H](O)[C@H](O)[C@H]7O)[C@](C)(CO)[C@@H]6CC[C@]54C)[C@@H]3CC2(C)C)O[C@H](C)[C@@H]1OC(=O)/C(C)=C\C', 'pIC50', 5.61);

Now for a further compound.
Observed pIC50 on MCF7, entry C/C=C(/C)C(=O)O[C@@H]1[C@@H](O)[C@H](O[C@H]2[C@H](O)[C@]3(COC(C)=O)[C@H](O)C[C@]4(C)C(=CC[C@@H]5[C@@]6(C)CC[C@H](O[C@@H]7O[C@H](C(=O)O)[C@@H](O)[C@H](O)[C@H]7O[C@@H]7O[C@H](CO)[C@@H](O)[C@H](O)[C@H]7O)[C@](C)(CO)[C@@H]6CC[C@]54C)[C@@H]3CC2(C)C)O[C@H](C)[C@@H]1OC(C)=O , equals 4.04

* * *

This listing pairs molecules with measured IC50.
- System: BGC-823
- ASSAY PROCEDURE: Cytotoxicity against human BGC823 cells by MTT assay
- Format: functional, cell-based
Write the value in µM as a bare number.

INSERT INTO results (molecule, measurement_unit, value) VALUES
  ('C/C=C(/C)C(=O)O[C@@H]1[C@@H](O)[C@H](O[C@H]2[C@H](OC(C)=O)[C@]3(CO)[C@H](O)C[C@]4(C)C(=CC[C@@H]5[C@@]6(C)CC[C@H](O[C@@H]7O[C@H](C(=O)O)[C@@H](O)[C@H](O)[C@H]7O[C@@H]7O[C@H](CO)[C@@H](O)[C@H](O)[C@H]7O)[C@](C)(CO)[C@@H]6CC[C@]54C)[C@@H]3CC2(C)C)O[C@H](C)[C@@H]1OC(C)=O [BUNKANKASAPONIN A]', 'µM', 17.5);

Now for a further molecule.
Recorded result, C/C=C(/C)C(=O)O[C@@H]1[C@@H](O)[C@H](O[C@H]2[C@H](OC(C)=O)[C@]3(CO)[C@H](O)C[C@]4(C)C(=CC[C@@H]5[C@@]6(C)CC[C@H](O[C@@H]7O[C@H](C(=O)O)[C@@H](O)[C@H](O)[C@H]7O[C@@H]7O[C@H](CO)[C@@H](O)[C@H](O)[C@H]7O)[C@](C)(CO)[C@@H]6CC[C@]54C)[C@@H]3CC2(C)C)O[C@H](C)[C@@H]1OC(=O)/C(C)=C\C [BUNKANKASAPONIN B] , IC50: 2.5

* * *

This listing pairs molecules with measured IC50.
- System: BGC-823
- ASSAY PROCEDURE: Cytotoxicity against human BGC823 cells by MTT assay
- Assay type: functional, cell-based
Write the value in µM as a bare number.

INSERT INTO assay_data (smiles, measurement_unit, value) VALUES
  ('C/C=C(/C)C(=O)O[C@@H]1[C@@H](O)[C@H](O[C@H]2[C@H](O)[C@]3(COC(C)=O)[C@H](O)C[C@]4(C)C(=CC[C@@H]5[C@@]6(C)CC[C@H](O[C@@H]7O[C@H](C(=O)O)[C@@H](O)[C@H](O)[C@H]7O[C@@H]7O[C@H](CO)[C@@H](O)[C@H](O)[C@H]7O)[C@](C)(CO)[C@@H]6CC[C@]54C)[C@@H]3CC2(C)C)O[C@H](C)[C@@H]1OC(=O)/C(C)=C\C', 'µM', 23.9);

Recorded result, C/C=C(/C)C(=O)O[C@@H]1[C@@H](O)[C@H](O[C@H]2[C@H](OC(C)=O)[C@]3(CO)[C@H](O)C[C@]4(C)C(=CC[C@@H]5[C@@]6(C)CC[C@H](O[C@@H]7O[C@H](C(=O)O)[C@@H](O)[C@H](O)[C@H]7O[C@@H]7O[C@H](CO)[C@@H](O)[C@H](O)[C@H]7O)C(C)(C)[C@@H]6CC[C@]54C)[C@@H]3CC2(C)C)O[C@H](C)[C@@H]1OC(=O)/C(C)=C\C , IC50: 11.3

* * *

This listing pairs compounds with measured pIC50.
- System: MCF7
- ASSAY PROCEDURE: Cytotoxicity against human MCF7 cells by MTT assay
- Format: functional, cell-based
pIC50: −log10 of the molar value.

Completed entries (count: 4):
INSERT INTO assay_data (compound, value) VALUES
  ('O=c1[nH]cc(F)c(=O)[nH]1', 4.61),
  ('C/C=C(/C)C(=O)O[C@@H]1[C@@H](O)[C@H](O[C@H]2CC[C@]3(C)[C@H]4CC=C5[C@@H]6CC(C)(C)[C@@H](O)[C@H](O)[C@]6(CO[C@@H]6O[C@H](CO[C@@H]7O[C@H](CO)[C@@H](O)[C@H](O)[C@H]7O)[C@@H](O)[C@H](O)[C@H]6O[C@@H]6O[C@H](CO)[C@@H](O)[C@H](O)[C@H]6O)CC[C@@]5(C)[C@]4(C)CC[C@H]3C2(C)C)O[C@H](CO[C@@H]2O[C@H](CO)[C@@H](O)[C@H](O)[C@H]2O)[C@H]1OC(C)=O [SORBIFOLIASIDE F]', '< 4.00'),
  ('C/C=C(/C)C(=O)O[C@@H]1[C@@H](O)[C@H](O[C@H]2CC[C@]3(C)[C@H]4CC=C5[C@@H]6CC(C)(C)[C@@H](O)[C@H](O)[C@]6(CO[C@@H]6O[C@H](CO[C@@H]7O[C@H](CO)[C@@H](O)[C@H](O)[C@H]7O)[C@@H](O)[C@H](O)[C@H]6O)C(=O)C[C@@]5(C)[C@]4(C)CC[C@H]3C2(C)C)O[C@H](CO[C@@H]2O[C@H](CO)[C@@H](O)[C@H](O)[C@H]2O)[C@H]1O [SORBIFOLIASIDE E]', '< 4.00'),
  ('CC1(C)C[C@H]2C3=CC[C@@H]4[C@@]5(C)CC[C@H](O[C@@H]6O[C@H](CO[C@@H]7O[C@H](CO)[C@@H](O)[C@H](O)[C@H]7O)[C@@H](O)[C@H](O)[C@H]6O)C(C)(C)[C@@H]5CC[C@@]4(C)[C@]3(C)CC(=O)[C@@]2(CO[C@@H]2O[C@H](CO[C@@H]3O[C@H](CO)[C@@H](O)[C@H](O)[C@H]3O)[C@@H](O)[C@H](O)[C@H]2O[C@@H]2O[C@H](CO)[C@@H](O)[C@H](O)[C@H]2O)[C@@H](O)[C@@H]1O [SORBIFOLIASIDE B]', '< 4.00');

Observed pIC50 on MCF7, entry C/C=C(/C)C(=O)O[C@@H]1[C@@H](O)[C@H](O[C@H]2[C@H](OC(C)=O)[C@]3(CO)[C@H](O)C[C@]4(C)C(=CC[C@@H]5[C@@]6(C)CC[C@H](O[C@@H]7O[C@H](C(=O)O)[C@@H](O)[C@H](O)[C@H]7O[C@@H]7O[C@H](CO)[C@@H](O)[C@H](O)[C@H]7O)[C@](C)(CO)[C@@H]6CC[C@]54C)[C@@H]3CC2(C)C)O[C@H](C)[C@@H]1OC(C)=O , equals 4.90

Observed pIC50 on MCF7, entry C/C=C(/C)C(=O)O[C@@H]1[C@@H](O)[C@H](O[C@H]2CC[C@]3(C)[C@H]4CC=C5[C@@H]6CC(C)(C)[C@@H](O)[C@H](O)[C@]6(CO[C@@H]6O[C@H](CO[C@@H]7O[C@H](CO)[C@@H](O)[C@H](O)[C@H]7O)[C@@H](O)[C@H](O)[C@H]6O)CC[C@@]5(C)[C@]4(C)CC[C@H]3C2(C)C)O[C@H](CO[C@@H]2O[C@H](CO)[C@@H](O)[C@H](O)[C@H]2O)[C@H]1O [SORBIFOLIASIDE D] , equals < 4.00
